Biological target: kinases (Homo sapiens, UniProt P10721, L576P)
Construct: purchased Eurofins/DiscoveRx; host or cells: E. coli BL21-derived host (T7 phage display) for most kinases; HEK-293 for the rest
Sequence (P10721 26-976 L576P): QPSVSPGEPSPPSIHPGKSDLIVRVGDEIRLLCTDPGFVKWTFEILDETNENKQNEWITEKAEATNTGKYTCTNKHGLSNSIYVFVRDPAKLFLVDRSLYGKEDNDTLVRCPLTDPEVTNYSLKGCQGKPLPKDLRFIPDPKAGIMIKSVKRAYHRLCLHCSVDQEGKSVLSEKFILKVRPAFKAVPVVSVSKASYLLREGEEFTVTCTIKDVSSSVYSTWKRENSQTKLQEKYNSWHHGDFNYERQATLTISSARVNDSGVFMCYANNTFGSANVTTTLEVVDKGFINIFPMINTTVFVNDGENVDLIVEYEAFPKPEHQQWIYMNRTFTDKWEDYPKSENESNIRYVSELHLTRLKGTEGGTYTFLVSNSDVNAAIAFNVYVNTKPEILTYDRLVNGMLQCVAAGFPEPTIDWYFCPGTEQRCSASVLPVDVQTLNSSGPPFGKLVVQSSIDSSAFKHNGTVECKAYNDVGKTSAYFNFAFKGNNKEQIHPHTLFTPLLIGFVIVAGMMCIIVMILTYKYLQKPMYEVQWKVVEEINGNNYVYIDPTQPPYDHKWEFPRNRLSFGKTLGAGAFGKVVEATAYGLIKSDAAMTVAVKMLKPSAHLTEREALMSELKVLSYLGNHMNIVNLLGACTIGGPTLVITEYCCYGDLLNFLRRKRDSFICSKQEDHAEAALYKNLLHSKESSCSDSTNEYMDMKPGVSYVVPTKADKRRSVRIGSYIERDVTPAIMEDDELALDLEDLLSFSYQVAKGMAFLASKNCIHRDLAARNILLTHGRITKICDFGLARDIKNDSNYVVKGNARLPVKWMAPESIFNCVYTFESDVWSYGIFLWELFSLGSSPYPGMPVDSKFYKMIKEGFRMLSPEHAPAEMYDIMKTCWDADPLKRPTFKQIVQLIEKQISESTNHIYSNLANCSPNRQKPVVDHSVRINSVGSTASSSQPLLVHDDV
Experiment: KINOMEscan kinase binding assay (Eurofins/DiscoveRx), % Ctrl
Conditions: target KIT(L576P); 1 μM
Readout Name: % Ctrl, KIT(L576P) (% Ctrl)

compound="Cc1cc2c([nH]1)/C=C1\\C(=O)Nc3cnc(cc31)-c1cn[nH]c1CNCCN(C)C2=O [Ex. 55]" readout_name="% Ctrl, KIT(L576P)" measure_unit="% Ctrl" quantitative_readout=17
compound="Cc1cc2c([nH]1)/C=C1\\C(=O)Nc3cc(Cl)c(cc31)OCCO[C@@H](C(=O)N1CCN(C)CC1)CN(C)C2=O [Ex. 138]" readout_name="% Ctrl, KIT(L576P)" measure_unit="% Ctrl" quantitative_readout=69
compound="Cc1nn(C)c2c1-c1ccc3c(c1)/C(=C/c1[nH]ccc1C(=O)N(C)CCCO2)C(=O)N3 [Ex. 150]" readout_name="% Ctrl, KIT(L576P)" measure_unit="% Ctrl" quantitative_readout=94
